# maps each entry to its log10 IC50
# Tested on: Plasmodium falciparum
# Experiment Summary: microbe, parasite or virus in culture
# Recorded Conditions: W2
# Description: Antimalarial activity against Plasmodium falciparum W2
Parameter: log10 IC50 (log10 of the value in µM)

{"Smiles Entry": "C1CCC(NCC2CCC3(CC2)OOC2(CCCCC2)OO3)CC1", "Measured Value": -2.21}
{"Smiles Entry": "CC(=O)O[C@H]1C[C@H]2[C@@H]([C@H](OC(C)=O)C[C@@H]3CC4(CC[C@@]32C)OOC2(CCCCC2)OO4)[C@@H]2CC[C@H]([C@H](C)CCCO)[C@@]12C", "Measured Value": -2.01}
{"Smiles Entry": "NCC1CCC2(CC1)OOC1(CCCCC1)OO2", "Measured Value": -2.11}
{"Smiles Entry": "NC(=O)C1CCC2(CC1)OOC1(CCCCC1)OO2", "Measured Value": -1.69}
{"Smiles Entry": "O=C(O)C1CCC2(CC1)OOC1(CCCCC1)OO2", "Measured Value": -0.38}
{"Smiles Entry": "CCCNC(=O)C1CCC2(CC1)OOC1(CCCCC1)OO2", "Measured Value": -1.66}
{"Smiles Entry": "CN(C)CCNC(=O)C1CCC2(CC1)OOC1(CCCCC1)OO2", "Measured Value": -2.01}
{"Smiles Entry": "c1ccc(CNCC2CCC3(CC2)OOC2(CCCCC2)OO3)cc1", "Measured Value": -2.09}
{"Smiles Entry": "CCCNCCC[C@@H](C)[C@H]1CC[C@H]2[C@@H]3[C@H](OC(C)=O)C[C@@H]4CC5(CC[C@]4(C)[C@H]3C[C@H](OC(C)=O)[C@]12C)OOC1(CCCCC1)OO5", "Measured Value": -1.95}
{"Smiles Entry": "CC(=O)O[C@H]1C[C@H]2[C@@H]([C@H](OC(C)=O)C[C@@H]3CC4(CC[C@@]32C)OOC2(CCCCC2)OO4)[C@@H]2CC[C@H]([C@H](C)CCCN=[N+]=[N-])[C@@]12C", "Measured Value": -2.20}
{"Smiles Entry": "C[C@H](CCCO)[C@H]1CC[C@H]2[C@@H]3[C@H](O)C[C@@H]4CC5(CC[C@]4(C)[C@H]3C[C@H](O)[C@]12C)OOC1(CCCCC1)OO5", "Measured Value": -0.96}
{"Smiles Entry": "C[C@@H]1CC[C@H]2[C@@H](C)C(=O)O[C@@H]3O[C@@]4(C)CC[C@@H]1[C@]32OO4", "Measured Value": -2.17}
{"Smiles Entry": "COC(=O)CC[C@@H](C)[C@H]1CC[C@H]2[C@@H]3[C@H](OC(C)=O)C[C@@H]4CC5(CC[C@]4(C)[C@H]3C[C@H](OC(C)=O)[C@]12C)OOC1(CCCCC1)OO5", "Measured Value": -1.77}
{"Smiles Entry": "COC(=O)C1CCC2(CC1)OOC1(CCCCC1)OO2", "Measured Value": -1.39}
{"Smiles Entry": "OCC1CCC2(CC1)OOC1(CCCCC1)OO2", "Measured Value": -2.18}
{"Smiles Entry": "CC(=O)O[C@H]1C[C@H]2[C@@H]([C@H](OC(C)=O)C[C@@H]3CC4(CC[C@@]32C)OOC2(CCCCC2)OO4)[C@@H]2CC[C@H]([C@H](C)CCCNCCN(C)C)[C@@]12C", "Measured Value": -1.73}
{"Smiles Entry": "CC(=O)OCCC[C@@H](C)[C@H]1CC[C@H]2[C@@H]3[C@H](OC(C)=O)C[C@@H]4CC5(CC[C@]4(C)[C@H]3C[C@H](OC(C)=O)[C@]12C)OOC1(CCCCC1)OO5", "Measured Value": -1.94}
{"Smiles Entry": "CC(=O)O[C@H]1C[C@H]2[C@@H]([C@H](OC(C)=O)C[C@@H]3CC4(CC[C@@]32C)OOC2(CCCCC2)OO4)[C@@H]2CC[C@H]([C@H](C)CCC(=O)O)[C@@]12C", "Measured Value": -1.72}
{"Smiles Entry": "CC(C)NCC1CCC2(CC1)OOC1(CCCCC1)OO2", "Measured Value": -2.12}

---

# Tested on: Plasmodium falciparum
# Experiment Summary: microbe, parasite or virus in culture
# Recorded Conditions: TM91C235
# Description: Antimalarial activity against multidrug-resistant Plasmodium falciparum TM91C235
Overview of reported IC90 across a group of molecules:

{"Smiles Entry": "CN(C)CCNC(=O)C1CCC2(CC1)OOC1(CCCCC1)OO2", "IC90 [nM]": 12.8}
{"Smiles Entry": "CC(=O)OCCC[C@@H](C)[C@H]1CC[C@H]2[C@@H]3[C@H](OC(C)=O)C[C@@H]4CC5(CC[C@]4(C)[C@H]3C[C@H](OC(C)=O)[C@]12C)OOC1(CCCCC1)OO5", "IC90 [nM]": 29.3}
{"Smiles Entry": "CC(=O)O[C@H]1C[C@H]2[C@@H]([C@H](OC(C)=O)C[C@@H]3CC4(CC[C@@]32C)OOC2(CCCCC2)OO4)[C@@H]2CC[C@H]([C@H](C)CCCNCCN(C)C)[C@@]12C", "IC90 [nM]": 88.1}
{"Smiles Entry": "O[C@@H](c1cc(C(F)(F)F)nc2c(C(F)(F)F)cccc12)[C@H]1CCCCN1", "IC90 [nM]": 50.1}

---

Entries and their IC90
# Test system: Plasmodium falciparum
# Experiment Summary: microbe, parasite or virus in culture
# Recorded Conditions: TM91C235

{"Molecule": "C[C@@H]1CC[C@H]2[C@@H](C)C(=O)O[C@@H]3O[C@@]4(C)CC[C@@H]1[C@]32OO4 [ARTEMISININ]", "IC90, µM": 0.0174}
{"Molecule": "O=C(O)C1CCC2(CC1)OOC1(CCCCC1)OO2", "IC90, µM": 0.523}
{"Molecule": "COC(=O)C1CCC2(CC1)OOC1(CCCCC1)OO2", "IC90, µM": 0.11}

---

# Experiment Summary: Metabolic stability assessed as half life in mouse liver microsomes
# Format: ADME, Microsome
Property: half-life; scope: individual molecules

{"Smiles Entry": "C1CCC(NCC2CCC3(CC2)OOC2(CCCCC2)OO3)CC1", "Unit Info": "min", "Comparator": "=", "half-life": 43.9}
{"Smiles Entry": "CC(=O)O[C@H]1C[C@H]2[C@@H]([C@H](OC(C)=O)C[C@@H]3CC4(CC[C@@]32C)OOC2(CCCCC2)OO4)[C@@H]2CC[C@H]([C@H](C)CCCNCCN(C)C)[C@@]12C", "Unit Info": "min", "Comparator": ">", "half-life": 60}
{"Smiles Entry": "c1ccc(CNCC2CCC3(CC2)OOC2(CCCCC2)OO3)cc1", "Unit Info": "min", "Comparator": "=", "half-life": 3.5}
{"Smiles Entry": "CC(C)NCC1CCC2(CC1)OOC1(CCCCC1)OO2", "Unit Info": "min", "Comparator": "=", "half-life": 9.9}
{"Smiles Entry": "CCCNCCC[C@@H](C)[C@H]1CC[C@H]2[C@@H]3[C@H](OC(C)=O)C[C@@H]4CC5(CC[C@]4(C)[C@H]3C[C@H](OC(C)=O)[C@]12C)OOC1(CCCCC1)OO5", "Unit Info": "min", "Comparator": ">", "half-life": 60}
{"Smiles Entry": "CN(C)CCNC(=O)C1CCC2(CC1)OOC1(CCCCC1)OO2", "Unit Info": "min", "Comparator": ">", "half-life": 60}

---

# Experiment Summary: Metabolic stability assessed as half life in human liver microsomes
# Format: ADME, Microsome
# half-life per record follows

{"Smiles Entry": "CC(=O)O[C@H]1C[C@H]2[C@@H]([C@H](OC(C)=O)C[C@@H]3CC4(CC[C@@]32C)OOC2(CCCCC2)OO4)[C@@H]2CC[C@H]([C@H](C)CCCNCCN(C)C)[C@@]12C", "Comparator": ">", "half-life / min": 60}
{"Smiles Entry": "CN(C)CCNC(=O)C1CCC2(CC1)OOC1(CCCCC1)OO2", "Comparator": ">", "half-life / min": 60}
{"Smiles Entry": "C1CCC(NCC2CCC3(CC2)OOC2(CCCCC2)OO3)CC1", "Comparator": "=", "half-life / min": 15.9}
{"Smiles Entry": "CCCNCCC[C@@H](C)[C@H]1CC[C@H]2[C@@H]3[C@H](OC(C)=O)C[C@@H]4CC5(CC[C@]4(C)[C@H]3C[C@H](OC(C)=O)[C@]12C)OOC1(CCCCC1)OO5", "Comparator": ">", "half-life / min": 60}
{"Smiles Entry": "c1ccc(CNCC2CCC3(CC2)OOC2(CCCCC2)OO3)cc1", "Comparator": "=", "half-life / min": 42}
{"Smiles Entry": "CC(C)NCC1CCC2(CC1)OOC1(CCCCC1)OO2", "Comparator": "=", "half-life / min": 38.7}

---

# Tested on: Plasmodium falciparum
# Experiment Summary: microbe, parasite or virus in culture
# Recorded Conditions: D6
# Description: Antimalarial activity against Plasmodium falciparum D6
Here, each record is paired with measured IC90 data.

{"Compound": "OCC1CCC2(CC1)OOC1(CCCCC1)OO2", "Test System": "Plasmodium falciparum", "IC90 / nM": 22.5}
{"Compound": "CCN(CC)CCCC(C)Nc1ccnc2cc(Cl)ccc12 (stereo not drawn)", "Test System": "Plasmodium falciparum", "IC90 / nM": 17.6}
{"Compound": "CC(=O)OCCC[C@@H](C)[C@H]1CC[C@H]2[C@@H]3[C@H](OC(C)=O)C[C@@H]4CC5(CC[C@]4(C)[C@H]3C[C@H](OC(C)=O)[C@]12C)OOC1(CCCCC1)OO5", "Test System": "Plasmodium falciparum", "IC90 / nM": 28.4}
